For each entry below, report its pIC50 value.
- Test system: SKOV3 (Ovarian adenocarcinoma)
- experimental.protocol: In vitro cytotoxicity, microculture tetrazolium (MTT) assay, SKOV3
- Format: cell-based, Human
- condition.notes: Homo sapiens, SK-OV-3; SKOV3 ovarian adenocarcinoma; 48 h with compound, further 48 h, MTT; Table 1
// pIC50 is dimensionless: -log10 of concentration (M)

Give me measured pIC50, please, for this molecule: CC(=O)C1CC2=C(C(=O)c3ccccc3C2=O)C(O[C@H]2C[C@H](NC(=O)C(F)(F)F)[C@H](OS(C)(=O)=O)[C@H](C)O2)O1 (mixture of isomers)
6.72

Note down pIC50 recorded for COC(=O)C1=CC2=C(C(=O)c3ccccc3C2=O)C(OC)O1 (centres unmarked)
5.31

Find the measured pIC50 of CC(=O)[C@H]1CC2=C(C(=O)c3ccccc3C2=O)[C@H](O[C@H]2C[C@H](NC(=O)C(F)(F)F)[C@H](OC(=O)CBr)[C@H](C)O2)O1 and report it.
8.52

Provide only the value of recorded pIC50 for CC(=O)[C@@H]1CC2=C(C(=O)c3ccccc3C2=O)[C@@H](O[C@@H]2O[C@@H](C)[C@@H](O)[C@@H](O)[C@H]2I)O1
6.44

Specify reported pIC50 for the molecule shown: C[C@@H]1O[C@@H](OC2OC(C#N)CC3=C2C(=O)c2ccccc2C3=O)C[C@H](NC(=O)C(F)(F)F)[C@@H]1O (mixture of isomers)
6.20

Could you please provide reported pIC50 for CC(=O)[C@H]1CC2=C(C(=O)c3ccccc3C2=O)[C@H](O[C@@H]2O[C@@H](C)[C@@H](O)[C@@H](NC(=O)C(F)(F)F)C2I)O1 (some centres unmarked) ? Thanks!
6.35

Name the recorded pIC50 of the item Nc1nc(C2CC3=C(CO2)C(=O)c2ccccc2C3=O)cs1 (centres unmarked) in your answer.
5.19

Query pIC50 for COC(=O)[C@]1(C)CC2=C(C(=O)c3ccccc3C2=O)[C@H](O[C@H]2C[C@H](NC(=O)C(F)(F)F)[C@H](O)[C@H](C)O2)O1
5.89

Supply pIC50 value. Item: COC1OC(C(C)=O)=CC2=C1C(=O)c1ccccc1C2=O (centres unmarked)
6.44

Return pIC50 for the following molecule: CC(C)[C@@H]1CC2=C(C(=O)c3ccccc3C2=O)[C@@H](O[C@H]2C[C@H](NC(=O)C(F)(F)F)[C@H](O)[C@H](C)O2)O1
5.33
